# Test system: K24384-001-R-PDC complex spheroid growth
# experiment.summary: Anticancer human tumor K24384-001-R-PDC patient-derived pancreatic adenocarcinoma cell line growth inhibition [AhR]; active = viability on the fitted dose curve at most 10% of control; inactive = the rest
# experimental.context: second compound 0.316 µM; first compound 3.16 µM
# Source text: Multicellular complex tumor spheroid response to aryl hydrocarbon receptor antagonists in combination with a variety of drugs and investigational agents in selected tumor cell lines […] Compounds. […] If the clinical Cmax for an agent had not been determined, the highest concentration tested was 10 microM (Table 1). […]
Entry note: the call must match one of True for active, False for inactive

COc1ccc([C@@H](O)c2cc(-c3ncnc4cc(N5CCOCC5)ccc34)c(F)cc2Cl)nn1 + Cc1cncc(-c2nc(NCCc3c[nH]c4ccccc34)c3ncn(C(C)C)c3n2)c1 ... False
COc1cccc2c1C(=O)c1c(O)c3c(c(O)c1C2=O)CC(O)(C(=O)CO)CC3OC1CC(N)C(O)C(C)O1 (stereo unspecified) + Cc1cncc(-c2nc(NCCc3c[nH]c4ccccc34)c3ncn(C(C)C)c3n2)c1 ... True
COc1ccc([C@@H](O)c2cc(-c3ncnc4cc(N5CCOCC5)ccc34)c(F)cc2Cl)nn1 + CC(CO)NC(=O)c1cc(-c2ccc(Cl)cc2)nn(-c2cnn(C)c2)c1=O ... False
O=C(c1cc(Cc2n[nH]c(=O)c3ccccc23)ccc1F)N1CCN(C(=O)C2CC2)CC1 + CC(CO)NC(=O)c1cc(-c2ccc(Cl)cc2)nn(-c2cnn(C)c2)c1=O ... False
Nc1ccn(C2OC(CO)C(O)C2(F)F)c(=O)n1 (stereo unspecified) + CC(CO)NC(=O)c1cc(-c2ccc(Cl)cc2)nn(-c2cnn(C)c2)c1=O ... False

Q: Assay outcome for O=C(C=Cc1cccc(S(=O)(=O)Nc2ccccc2)c1)NO + CC(CO)NC(=O)c1cc(-c2ccc(Cl)cc2)nn(-c2cnn(C)c2)c1=O : what was it?
A: False

###

Let's look at some molecules and their measured viability, T/C.
# System: K24384-001-R-PDC complex spheroid growth
# experiment.summary: Anticancer human tumor K24384-001-R-PDC cell line growth inhibition [AhR];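 also: percent of DMSO vehicle-treated spheroid viability set as 100%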
# experimental.context: second compound 0.1 µM; first compound 0.03 µM; active compounds read low

// worked examples, viability, T/C included
Nc1ncn(C2CC(O)C(CO)S2)c(=O)n1 (centres undefined) + Cc1cncc(-c2nc(NCCc3c[nH]c4ccccc34)c3ncn(C(C)C)c3n2)c1 ... 101%
Nc1ncn(C2CC(O)C(CO)S2)c(=O)n1 (centres undefined) + Cc1ccccc1N=Nc1ccc(NC(=O)c2ccnn2C)c(C)c1 ... 79.3%
CC(C)CC(NC(=O)C(Cc1ccccc1)NC(=O)c1cnccn1)B(O)O (centres undefined) + CC(CO)NC(=O)c1cc(-c2ccc(Cl)cc2)nn(-c2cnn(C)c2)c1=O ... 0.35%

Q: Need viability, T/C, item CC(C)CC(NC(=O)C(Cc1ccccc1)NC(=O)c1cnccn1)B(O)O (centres undefined) + Cc1cncc(-c2nc(NCCc3c[nH]c4ccccc34)c3ncn(C(C)C)c3n2)c1
A: 1.55%

###

# Test system: K24384-001-R-PDC complex spheroid growth
# experiment.summary: Anticancer human tumor K24384-001-R-PDC cell line growth inhibition [AhR];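 also: percent of DMSO vehicle-treated spheroid viability set as 100%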
# experimental.context: second compound 3.16 µM; first compound 0.0316 µM; active compounds read low
experimental.endpoint: viability, T/C (%)
State just the number; it will be interpreted in %.

Guide cases for viability, T/C, answers given:
Nc1ccn(C2OC(CO)C(O)C2(F)F)c(=O)n1 (stereo not drawn) + Cc1cncc(-c2nc(NCCc3c[nH]c4ccccc34)c3ncn(C(C)C)c3n2)c1 ... 117
CC1(C)CCC(CN2CCN(c3ccc(C(=O)NS(=O)(=O)c4ccc(NCC5CCOCC5)c([N+](=O)[O-])c4)c(Oc4cnc5[nH]ccc5c4)c3)CC2)=C(c2ccc(Cl)cc2)C1 + Cc1ccccc1N=Nc1ccc(NC(=O)c2ccnn2C)c(C)c1 ... 111

# ---- query compound ----
Q: Test system K24384-001-R-PDC complex spheroid growth; read-out viability, T/C; what value for NS(=O)(=O)OCC1CC(n2ccc3c(NC4CCc5ccccc54)ncnc32)CC1O (stereo not drawn) + CC(CO)NC(=O)c1cc(-c2ccc(Cl)cc2)nn(-c2cnn(C)c2)c1=O ?
A: 125

###

# Tested on: K24384-001-R-PDC complex spheroid growth
# experiment.summary: Anticancer human tumor K24384-001-R-PDC cell line growth inhibition [AhR]; active = viability on the fitted dose curve at most 10% of control; inactive = the rest;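 also: percent of DMSO vehicle-treated spheroid viability set as 100%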
# experimental.context: second compound 10 µM; first compound 1 µM
# Excerpt: Multicellular complex tumor spheroid response to aryl hydrocarbon receptor antagonists in combination with a variety of drugs and investigational agents in selected tumor cell lines […] Compounds. […] If the clinical Cmax for an agent had not been determined, the highest concentration tested was 10 microM (Table 1). […]
Please answer using one outcome listed in label 1 (active), label 0 (inactive)

CC1(C)CCC(CN2CCN(c3ccc(C(=O)NS(=O)(=O)c4ccc(NCC5CCOCC5)c([N+](=O)[O-])c4)c(Oc4cnc5[nH]ccc5c4)c3)CC2)=C(c2ccc(Cl)cc2)C1 + Cc1ccccc1N=Nc1ccc(NC(=O)c2ccnn2C)c(C)c1 ... label 0
COc1ccc([C@@H](O)c2cc(-c3ncnc4cc(N5CCOCC5)ccc34)c(F)cc2Cl)nn1 + Cc1cncc(-c2nc(NCCc3c[nH]c4ccccc34)c3ncn(C(C)C)c3n2)c1 ... label 1
CC1COCCN1c1cc(C2(S(C)(=N)=O)CC2)nc(-c2ccnc3[nH]ccc23)n1 (stereo not given) + CC(CO)NC(=O)c1cc(-c2ccc(Cl)cc2)nn(-c2cnn(C)c2)c1=O ... label 0
COc1ccc([C@@H](O)c2cc(-c3ncnc4cc(N5CCOCC5)ccc34)c(F)cc2Cl)nn1 + Cc1ccccc1N=Nc1ccc(NC(=O)c2ccnn2C)c(C)c1 ... label 0
CC(C)c1c(-c2ccccc2)nc2c(C#N)c[nH]n2c1=O + Cc1cncc(-c2nc(NCCc3c[nH]c4ccccc34)c3ncn(C(C)C)c3n2)c1 ... label 1

Q: For Nc1ccn(C2OC(CO)C(O)C2(F)F)c(=O)n1 (stereo not given) + Cc1cncc(-c2nc(NCCc3c[nH]c4ccccc34)c3ncn(C(C)C)c3n2)c1 , what call appears in the results of this test?
A: label 0

Q: Next: CC1COCCN1c1cc(-c2ccnn2C)c2ccnc(-c3ccn[nH]3)c2n1 (stereo not given) + CC(CO)NC(=O)c1cc(-c2ccc(Cl)cc2)nn(-c2cnn(C)c2)c1=O
A: label 0

Q: Would you mind doing COc1cc(C2c3cc4c(cc3C(OC3OC5COC(C)OC5C(O)C3O)C3COC(=O)C23)OCO4)cc(OC)c1O (stereo not given) + Cc1ccccc1N=Nc1ccc(NC(=O)c2ccnn2C)c(C)c1 as well?
A: label 0

Q: What do you have for CC1COCCN1c1cc(C2(S(C)(=N)=O)CC2)nc(-c2ccnc3[nH]ccc23)n1 (stereo not given) + Cc1ccccc1N=Nc1ccc(NC(=O)c2ccnn2C)c(C)c1 ?
A: label 0

Q: # iterate: COc1cc(C2c3cc4c(cc3C(OC3OC5COC(C)OC5C(O)C3O)C3COC(=O)C23)OCO4)cc(OC)c1O (stereo not given) + Cc1cncc(-c2nc(NCCc3c[nH]c4ccccc34)c3ncn(C(C)C)c3n2)c1
A: label 1

Q: Same again, this time with Nc1ccn(C2OC(CO)C(O)C2(F)F)c(=O)n1 (stereo not given) + Cc1ccccc1N=Nc1ccc(NC(=O)c2ccnn2C)c(C)c1
A: label 0

###

# Test system: K24384-001-R-PDC complex spheroid growth
# experiment.summary: Anticancer human tumor K24384-001-R-PDC cell line growth inhibition [AhR];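 also: percent of DMSO vehicle-treated spheroid viability set as 100%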
# experimental.context: second compound 10 µM; first compound 0.000949 µM; active compounds read low
experimental.endpoint: viability, T/C (%)
Use % as the unit, but write only the number.

CCc1c2c(nc3ccc(O)cc13)-c1cc3c(c(=O)n1C2)COC(=O)[C@]3(O)CC + Cc1cncc(-c2nc(NCCc3c[nH]c4ccccc34)c3ncn(C(C)C)c3n2)c1 ... 5.03
CCc1c2c(nc3ccc(O)cc13)-c1cc3c(c(=O)n1C2)COC(=O)[C@]3(O)CC + Cc1ccccc1N=Nc1ccc(NC(=O)c2ccnn2C)c(C)c1 ... 94
CC(C)CC(NC(=O)C(Cc1ccccc1)NC(=O)c1cnccn1)B(O)O (centres undefined) + Cc1ccccc1N=Nc1ccc(NC(=O)c2ccnn2C)c(C)c1 ... 97.4
Nc1ncn(C2CC(O)C(CO)S2)c(=O)n1 (centres undefined) + Cc1ccccc1N=Nc1ccc(NC(=O)c2ccnn2C)c(C)c1 ... 100
CCc1c2c(nc3ccc(O)cc13)-c1cc3c(c(=O)n1C2)COC(=O)[C@]3(O)CC + CC(CO)NC(=O)c1cc(-c2ccc(Cl)cc2)nn(-c2cnn(C)c2)c1=O ... 63.9

Q: Name the reported viability, T/C value associated with the molecule CC(C)CC(NC(=O)C(Cc1ccccc1)NC(=O)c1cnccn1)B(O)O (centres undefined) + Cc1cncc(-c2nc(NCCc3c[nH]c4ccccc34)c3ncn(C(C)C)c3n2)c1
A: 21.9

Q: Also Nc1ncn(C2CC(O)C(CO)S2)c(=O)n1 (centres undefined) + Cc1cncc(-c2nc(NCCc3c[nH]c4ccccc34)c3ncn(C(C)C)c3n2)c1 ?
A: 18.1

Q: Also Nc1ncn(C2CC(O)C(CO)S2)c(=O)n1 (centres undefined) + CC(CO)NC(=O)c1cc(-c2ccc(Cl)cc2)nn(-c2cnn(C)c2)c1=O , if possible.
A: 105

Q: And what about the molecule CC(C)CC(NC(=O)C(Cc1ccccc1)NC(=O)c1cnccn1)B(O)O (centres undefined) + CC(CO)NC(=O)c1cc(-c2ccc(Cl)cc2)nn(-c2cnn(C)c2)c1=O ?
A: 107
